Experiment Summary: Drug uptake in HEK293T cells expressing luciferase reporter gene at 50 uM measured every 3 mins for 60 mins by luminescence assay relative to 50 uM luciferin
Type: ADME, cell-based
Test Conditions: human, hek-293t, 1 h
Non-standard residues stand in square brackets, D forms with d. Residues, ends and D or L forms follow the SMILES beside them. *: point of attachment. X1 = O=C(OCCCS*)Oc1ccc2nc(C3=N[C@@H](C(=O)O)CS3)sc2c1; Mpa = O=C(O)CCS

Compound	fold change (FC)
CC(C)C[C@H](NC(=O)[C@H](CCCCN)NC(=O)CCSSCCCOC(=O)Oc1ccc2nc(C3=N[C@@H](C(=O)O)CS3)sc2c1)C(=O)N[C@@H](Cc1ccccc1)C(=O)N[C@@H](CC(N)=O)C(=O)N[C@@H](CCCCN)C(=O)N[C@@H](CCC(N)=O)C(=O)N[C@@H](CCC(=O)O)C(=O)N[C@@H](Cc1c[nH]c2ccccc12)C(=O)N[C@H](C(=O)N[C@@H](CC(N)=O)C(N)=O)[C@@H](C)O ([Mpa](X1)KLFNKQEWTN-NH2)	9.7
CC(C)C[C@H](NC(=O)CCSSCCCOC(=O)Oc1ccc2nc(C3=N[C@@H](C(=O)O)CS3)sc2c1)C(=O)N[C@@H](CCCCN)C(=O)N[C@@H](CCCNC(=N)N)C(=O)N[C@@H](Cc1c[nH]c2ccccc12)C(=O)N[C@@H](CCCCN)C(=O)N[C@@H](CC(C)C)C(=O)N[C@@H](Cc1ccccc1)C(=O)N[C@@H](CC(N)=O)C(=O)N[C@@H](CCCCN)C(=O)N[C@@H](CCC(N)=O)C(N)=O ([Mpa](X1)LKRWKLFNKQ-NH2)	34.5
CC(C)C[C@H](NC(=O)[C@H](CCCCN)NC(=O)[C@H](Cc1c[nH]c2ccccc12)NC(=O)[C@H](CCCNC(=N)N)NC(=O)[C@H](CCCCN)NC(=O)[C@H](CC(C)C)NC(=O)[C@@H](NC(=O)[C@H](CCCNC(=N)N)NC(=O)CCSSCCCOC(=O)Oc1ccc2nc(C3=N[C@@H](C(=O)O)CS3)sc2c1)C(C)C)C(=O)N[C@@H](Cc1ccccc1)C(=O)N[C@@H](CC(N)=O)C(N)=O ([Mpa](X1)RVLKRWKLFN-NH2)	198.2
